Values were extracted from PubChem BioAssay (NCATS).

test: qHTS of pediatric cancer cell lines to identify multiple opportunities for drug repurposing: Primary screen for BT-37 cells (AID 1347094)
settings: BT-37 viability, CellTiter-Glo luminescence, 48 h; series mostly up to 57.3 µM
Inconclusive results are not listed. Calls of active or inactive are those of the source. Calls come from the whole dose curve; as a rule, active = well fitted cell-killing curve with a large enough effect; inconclusive = small, poorly fitted or top-dose-only effect; inactive = flat fitted curve, though single readings scatter.
Would you mind answering with one of these outcomes? active, inactive

O=C(O)C1=CO[C@@H](O[C@@H]2O[C@H](CO)[C@H](O)[C@H](O)[C@H]2O)[C@@H]2C(CO)=CC[C@H]12 ... inactive
CNC(=O)[C@H](CC1=CN=C2C=CCC=C12)NC(=O)[C@@H](CC(=O)NO)CC(C)C ... active
CC(C)n1c(C=C[C@H](O)C[C@H](O)CC(=O)O)c(-c2ccc(F)cc2)c2ccccc21 ... active
Cc1ccccc1C(C(=O)NC1CCCCC1)N(C(=O)CNc1ccc(C#N)cc1)c1cccc(F)c1 (stereo not given) ... inactive
CCNC(=O)c1noc(-c2cc(C(C)C)c(O)cc2O)c1-c1ccc(CN2CCOCC2)cc1 ... active
O=C1C(CCC(O)c2ccc(F)cc2)C(c2ccc(O)cc2)N1c1ccc(F)cc1 (stereo not given) ... inactive
CC(C)C[C@@H](C(=O)N[C@H](C(=O)OC1CCCC1)c1ccccc1)[C@H](O)C(=O)NO ... active
Nc1ccn([C@@H]2O[C@H](CO)[C@@H](O)[C@H]2O)c(=O)n1 ... active
COc1cc(C=CC(=O)O)ccc1O ... inactive
N#CC(=C1Nc2ccccc2S1)c1ccnc(OCc2ccc(CN3CCOCC3)cc2)n1 ... active

Inquiry: For CN1[C@H]2CC[C@H]1CC(OC(=O)c1c[nH]c3ccccc13)C2 (stereo not given in full) , what call appears in the results of this test?
Reply text: inactive

Inquiry: Give the logged outcome of this assay for the following compound: CC[C@H](CC#N)OC(=O)N[C@@H](C)c1cccc(NC(=O)Nc2ccc(-c3cnco3)c(OC)c2)c1
Reply text: active

Inquiry: Test call for this compound, please: COc1cc2nccc(Oc3ccc(NC(=O)Nc4ccc(F)cc4F)c(F)c3)c2cc1OC
Reply text: inactive
